// provenance: PubChem BioAssay (NCI)

Exercise: for every item that follows, state its recorded TGI.
# Test system: MCF7 breast
# test-summary: NCI tumour cell line growth inhibition, 48 h
*1 amine or outer side, *2 acyl side, *3 side chain or, on linkers, in order; H or OH if unused. Where a SMILES comes first, the peptide text is derived from it. Bridges are numbered along the chain shown (N, C = ends). [ ]: non-standard residue; d: D form. The star is where a group is joined. ξ: configuration not given here. X34 = O=C(C(CCCCNO[*:3])N[*:1])[*:2]; Fmoc = O=C(OCC1c2ccccc2-c2ccccc21)*; ξW = NC(Cc1c[nH]c2ccccc12)C(=O)O; ξP = O=C(O)C1CCCN1

**Q:** Using the record for `Cc1nnc(Nc2ccccc2)o1` , report its TGI.
**A:** > 100 µM

**Q:** Using the record for `C=C(CN1CCc2ccccc2C1)c1ccc(C(=O)Nc2cnccn2)cc1` , report its TGI.
**A:** > 100 µM

**Q:** Using the record for `O=c1oc2ccc(F)cc2c(=O)n1-c1ccc(F)cc1F` , report its TGI.
**A:** > 100 µM

**Q:** Using the record for `Cc1c(F)c(N)c2c(=O)cc(-c3ccc(NC(=O)CN(C)C)c(F)c3)oc2c1F` , report its TGI.
**A:** > 66.1 µM

**Q:** Using the record for `O=C(/C=C/c1ccc(O)c([N+](=O)[O-])c1)CC(=O)/C=C/c1ccc(O)c([N+](=O)[O-])c1` , report its TGI.
**A:** > 100 µM

**Q:** Using the record for `CCOC(=O)CCc1cc(=O)oc2cc(O)cc(O)c12` , report its TGI.
**A:** > 100 µM

**Q:** Using the record for `COc1cccc(-c2cc(=O)c3ccccc3o2)c1N` , report its TGI.
**A:** > 100 µM

**Q:** Using the record for Nc1ccn(C2O[C@H](CO)[C@@H](O)[C@@H]2O)c(=O)n1 (stereo partly specified) , report its TGI.
**A:** > 100 µM

**Q:** Using the record for `CC(C)c1ccc2[nH]c(O)c(-c3[nH]c4ccccc4c3N=O)c2c1` , report its TGI.
**A:** 5.71 µM

**Q:** Using the record for `Cc1cc(N(CCC#N)CCC#N)ccc1/C=N/NC(=O)c1cc(Cl)ccc1O` , report its TGI.
**A:** > 100 µM

**Q:** Using the record for CC(=O)OCC(C)C1=C(O)C(=O)C2(C)C/C=C(/C)CC/C=C(\C)CCC(O)C(C)CCC12 (stereo unspecified) , report its TGI.
**A:** 44.2 µM

**Q:** Using the record for `CC1=C(CCCNS(C)(=O)=O)C2=C(C)C3(CC3)[C@@](C)(O)C(=O)C2=C1` , report its TGI.
**A:** > 100 µM

**Q:** Using the record for NC(=O)CNC(=O)C1CCCN1C(=O)C1CCCCNOC(=O)CC[C@@H](NC(=O)OCC2c3ccccc3-c3ccccc32)C(=O)NC(Cc2c[nH]c3ccccc23)C(=O)N1 (stereo partly specified) (Fmoc-[dE][ξW][X34][ξP]G-NH2; ester 1-3) , report its TGI.
**A:** > 100 µM

**Q:** Using the record for `O=C(O)CSc1nnc(COc2ccc(Cl)cc2)n1-c1ccccc1` , report its TGI.
**A:** > 100 µM

**Q:** Using the record for `Cc1nc2cccc([N+](=O)[O-])c2c(NCCCN(C)C)c1C` , report its TGI.
**A:** 60.6 µM

**Q:** Using the record for CN(C)CCCOc1nc2c(c(=O)n(C)c(=O)n2C)n1C (tested in a mixture with another compound) , report its TGI.
**A:** > 100 µM
